Target: substance P receptor sites in IM-9 cells (Homo sapiens, UniProt P25103)
Construct: endogenous in cells
Sequence (P25103 whole entry): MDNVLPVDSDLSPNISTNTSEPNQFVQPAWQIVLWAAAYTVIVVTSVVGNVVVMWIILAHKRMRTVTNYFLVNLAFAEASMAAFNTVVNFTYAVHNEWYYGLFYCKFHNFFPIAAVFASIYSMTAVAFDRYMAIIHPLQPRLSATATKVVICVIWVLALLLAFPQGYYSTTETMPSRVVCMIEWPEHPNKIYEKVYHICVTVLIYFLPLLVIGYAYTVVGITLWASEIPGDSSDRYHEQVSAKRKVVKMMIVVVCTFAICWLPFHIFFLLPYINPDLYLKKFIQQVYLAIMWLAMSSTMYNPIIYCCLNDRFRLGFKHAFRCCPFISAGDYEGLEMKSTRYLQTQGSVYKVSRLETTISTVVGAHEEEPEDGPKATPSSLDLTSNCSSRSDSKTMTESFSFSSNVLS
Assay: IM-9 binding assay (inhibition of [^3H]SP binding)
Details: inhibition of [^3H]SP binding to human IM-9 cells
Method: The activity of the compounds of the present invention, as substance P antagonists, is determined by their ability to inhibit the binding of substance P at its receptor sites in IM-9 cells employing radioactive ligands. The substance P antagonist activity of the herein described compounds is evaluated by using the standard assay procedure described by D. G. Payan et al as reported in J. Immunology, 133, 3260 (1984). […] The filters are placed into tubes and counted using liquid scintillation counter.
Structures can show the parent of a compound that is named as a salt.
recorded-endpoint: IC50

Value lookup for IC50; key = COc1cc2c(cc1CN[C@H]1CCCN[C@H]1c1ccccc1)N(C)C(=O)CC2 [Compound 21, dihydrochloride]
< 0.1 nM

###

Biological target: Ca^2+ channel (Rattus norvegicus)
Sequence (P22002 whole entry, other chains not shown): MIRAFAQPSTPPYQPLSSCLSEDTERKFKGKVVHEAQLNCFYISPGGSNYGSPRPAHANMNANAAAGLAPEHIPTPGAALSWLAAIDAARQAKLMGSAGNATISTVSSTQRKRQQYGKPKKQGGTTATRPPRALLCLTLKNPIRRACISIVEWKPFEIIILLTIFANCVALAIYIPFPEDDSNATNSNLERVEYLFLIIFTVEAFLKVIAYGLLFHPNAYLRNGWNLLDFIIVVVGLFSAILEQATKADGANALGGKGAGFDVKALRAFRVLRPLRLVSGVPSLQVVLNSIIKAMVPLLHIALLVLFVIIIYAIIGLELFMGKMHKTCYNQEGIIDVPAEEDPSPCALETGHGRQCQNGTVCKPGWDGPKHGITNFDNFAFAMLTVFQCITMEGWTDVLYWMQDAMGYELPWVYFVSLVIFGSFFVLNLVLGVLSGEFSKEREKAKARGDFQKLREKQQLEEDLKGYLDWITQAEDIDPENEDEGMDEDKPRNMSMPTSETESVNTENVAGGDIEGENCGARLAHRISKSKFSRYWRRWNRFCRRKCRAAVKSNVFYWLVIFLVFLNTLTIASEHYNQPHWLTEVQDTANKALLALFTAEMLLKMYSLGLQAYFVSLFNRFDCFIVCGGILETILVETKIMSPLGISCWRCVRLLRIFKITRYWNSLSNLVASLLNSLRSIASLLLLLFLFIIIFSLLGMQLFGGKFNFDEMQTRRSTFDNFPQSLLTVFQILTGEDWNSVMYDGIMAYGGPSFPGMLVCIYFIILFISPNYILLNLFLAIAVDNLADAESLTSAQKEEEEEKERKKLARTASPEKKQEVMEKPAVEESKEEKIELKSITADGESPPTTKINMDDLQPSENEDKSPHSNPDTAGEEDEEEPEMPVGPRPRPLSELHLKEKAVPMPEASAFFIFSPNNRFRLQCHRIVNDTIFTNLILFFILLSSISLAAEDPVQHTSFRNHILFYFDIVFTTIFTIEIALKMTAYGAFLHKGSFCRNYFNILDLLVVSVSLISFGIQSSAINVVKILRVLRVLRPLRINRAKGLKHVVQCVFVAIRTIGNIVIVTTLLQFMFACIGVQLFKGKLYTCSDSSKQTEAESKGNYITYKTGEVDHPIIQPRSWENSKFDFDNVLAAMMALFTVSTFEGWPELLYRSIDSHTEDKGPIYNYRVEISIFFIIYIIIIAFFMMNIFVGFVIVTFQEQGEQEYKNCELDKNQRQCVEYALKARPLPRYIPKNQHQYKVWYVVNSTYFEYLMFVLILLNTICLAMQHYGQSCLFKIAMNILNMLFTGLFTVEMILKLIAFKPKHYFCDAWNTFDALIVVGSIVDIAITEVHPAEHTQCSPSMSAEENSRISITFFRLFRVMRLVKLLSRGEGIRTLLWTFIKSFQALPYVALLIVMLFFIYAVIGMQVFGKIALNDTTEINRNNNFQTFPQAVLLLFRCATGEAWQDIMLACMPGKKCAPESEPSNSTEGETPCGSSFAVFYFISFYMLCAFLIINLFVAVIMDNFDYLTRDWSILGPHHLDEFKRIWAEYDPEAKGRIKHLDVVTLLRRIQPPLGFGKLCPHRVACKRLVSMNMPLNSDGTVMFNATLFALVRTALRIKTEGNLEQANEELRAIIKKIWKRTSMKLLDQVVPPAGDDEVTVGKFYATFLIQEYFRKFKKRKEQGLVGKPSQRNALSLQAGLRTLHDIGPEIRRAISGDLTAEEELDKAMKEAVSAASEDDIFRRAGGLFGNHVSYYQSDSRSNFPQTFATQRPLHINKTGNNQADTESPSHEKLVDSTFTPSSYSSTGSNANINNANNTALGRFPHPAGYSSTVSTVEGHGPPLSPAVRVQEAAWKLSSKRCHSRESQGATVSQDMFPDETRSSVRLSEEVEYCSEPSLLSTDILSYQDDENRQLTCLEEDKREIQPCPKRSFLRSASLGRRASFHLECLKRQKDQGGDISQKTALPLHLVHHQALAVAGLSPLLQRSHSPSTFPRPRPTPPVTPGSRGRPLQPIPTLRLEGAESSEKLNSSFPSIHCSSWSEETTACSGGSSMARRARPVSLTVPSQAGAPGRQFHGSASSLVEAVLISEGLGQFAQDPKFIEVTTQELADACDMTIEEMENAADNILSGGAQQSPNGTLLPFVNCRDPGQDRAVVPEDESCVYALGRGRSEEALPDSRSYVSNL
Sequence (P54290 25-944 partner limits assumed, other chains not shown): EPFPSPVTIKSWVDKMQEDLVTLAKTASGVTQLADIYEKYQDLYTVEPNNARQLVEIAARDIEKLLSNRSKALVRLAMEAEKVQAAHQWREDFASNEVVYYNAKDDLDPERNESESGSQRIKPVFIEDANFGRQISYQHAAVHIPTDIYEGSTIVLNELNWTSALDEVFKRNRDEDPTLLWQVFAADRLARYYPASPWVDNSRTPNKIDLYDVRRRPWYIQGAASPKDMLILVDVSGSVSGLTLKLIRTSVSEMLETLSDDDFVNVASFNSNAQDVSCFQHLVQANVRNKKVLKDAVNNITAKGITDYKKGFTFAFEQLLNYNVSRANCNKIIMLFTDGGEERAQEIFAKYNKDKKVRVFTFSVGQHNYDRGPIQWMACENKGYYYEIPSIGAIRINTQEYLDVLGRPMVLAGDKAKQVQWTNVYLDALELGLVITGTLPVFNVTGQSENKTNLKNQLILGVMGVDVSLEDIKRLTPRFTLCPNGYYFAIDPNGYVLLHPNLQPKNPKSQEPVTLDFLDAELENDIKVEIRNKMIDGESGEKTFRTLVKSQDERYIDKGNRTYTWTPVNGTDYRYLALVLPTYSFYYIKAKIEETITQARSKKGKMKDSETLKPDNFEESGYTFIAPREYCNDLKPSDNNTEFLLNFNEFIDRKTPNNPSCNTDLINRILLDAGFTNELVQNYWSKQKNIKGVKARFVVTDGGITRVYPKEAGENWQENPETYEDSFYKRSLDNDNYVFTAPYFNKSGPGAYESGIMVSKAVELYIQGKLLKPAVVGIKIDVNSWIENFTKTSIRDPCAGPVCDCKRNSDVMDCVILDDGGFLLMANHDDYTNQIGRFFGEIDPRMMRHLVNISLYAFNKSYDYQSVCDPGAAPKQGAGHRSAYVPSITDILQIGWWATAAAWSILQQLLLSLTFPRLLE
Sequence (P54290 945-1091 partner limits assumed, other chains not shown): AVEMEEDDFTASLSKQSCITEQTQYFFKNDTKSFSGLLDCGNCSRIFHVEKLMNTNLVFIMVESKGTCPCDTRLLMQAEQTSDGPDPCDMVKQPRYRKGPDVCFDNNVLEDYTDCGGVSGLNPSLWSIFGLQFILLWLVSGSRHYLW
Experiment: verapamil binding study in rat heart membrane preparation
Settings: [^3H]desmethoxyverapamil binding
Where a name gives a salt, the structure may show the parent alone.
recorded-endpoint: IC50

Give its IC50 value. Item: COc1cc2c(cc1CN[C@H]1CCCN[C@H]1c1ccccc1)N(C)C(=O)CC2 [Compound 21, dihydrochloride]
> 3 µM
